molecular target: HCV NS3 helicase (Hepatitis C virus genotype 1b, UniProt P26663); construct: full-length NS3 (1-631), purified at Array BioPharma; assay: HCV Helicase Prompt FRET Assay (Example A); format: biochemical; conditions: Table 31, compounds made using Schemes 38-45; read-out: IC50 Activity
Sequence (P26663 1027-1657): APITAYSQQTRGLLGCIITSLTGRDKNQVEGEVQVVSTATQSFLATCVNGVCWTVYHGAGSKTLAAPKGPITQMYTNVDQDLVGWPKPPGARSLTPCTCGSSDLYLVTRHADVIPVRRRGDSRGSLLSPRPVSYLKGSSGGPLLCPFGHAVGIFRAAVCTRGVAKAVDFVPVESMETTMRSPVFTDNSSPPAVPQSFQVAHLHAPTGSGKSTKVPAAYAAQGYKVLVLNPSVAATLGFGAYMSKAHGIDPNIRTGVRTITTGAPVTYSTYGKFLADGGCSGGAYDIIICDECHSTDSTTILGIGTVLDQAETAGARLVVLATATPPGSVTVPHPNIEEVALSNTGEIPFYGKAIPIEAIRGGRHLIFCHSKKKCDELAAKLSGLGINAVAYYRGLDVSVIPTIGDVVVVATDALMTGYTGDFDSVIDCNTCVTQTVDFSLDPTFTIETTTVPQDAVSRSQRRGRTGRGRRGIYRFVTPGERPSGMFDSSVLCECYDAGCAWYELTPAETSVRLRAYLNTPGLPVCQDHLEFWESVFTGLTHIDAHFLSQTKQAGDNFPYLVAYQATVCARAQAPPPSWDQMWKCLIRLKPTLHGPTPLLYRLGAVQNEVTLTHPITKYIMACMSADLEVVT
pIC50: −log10 of the molar value.
Parameter: pIC50. Scope: all listed entries.
result type: pIC50

# molecule, system under test, result type, test value
records = [
    ("Cc1c(N)cc(N)cc1-c1ccc2c(CC(=O)O)cn(Cc3csc4ccc(Cl)cc34)c2c1 [Example 628]", "HCV NS3 helicase (Hepatitis C virus genotype 1b, UniProt P26663)", "pIC50", "> 5.00"),
    ("CCNc1nc(NCC)nc(-c2ccc3c(CC(=O)O)cn(Cc4csc5ccc(Cl)cc45)c3c2)n1 [Example 632]", "HCV NS3 helicase (Hepatitis C virus genotype 1b, UniProt P26663)", "pIC50", "> 5.00"),
    ("Nc1nc(-c2ccc3c(CC(=O)O)cn(Cc4csc5ccc(Cl)cc45)c3c2)c2nc[nH]c2n1 [Example 639]", "HCV NS3 helicase (Hepatitis C virus genotype 1b, UniProt P26663)", "pIC50", "4.30 to 5.00"),
    ("Nc1nc(-c2ccc3c(CC(=O)O)cn(Cc4csc5ccc(Cl)cc45)c3c2)ncc1F [Example 633]", "HCV NS3 helicase (Hepatitis C virus genotype 1b, UniProt P26663)", "pIC50", "4.30 to 5.00"),
    ("Nc1cc(-c2ccc3c(CC(=O)O)cn(Cc4csc5ccc(Cl)cc45)c3c2)cc(N)n1 [Example 638]", "HCV NS3 helicase (Hepatitis C virus genotype 1b, UniProt P26663)", "pIC50", "4.30 to 5.00"),
    ("Nn1c(=O)[nH]cc(-c2ccc3c(CC(=O)O)cn(Cc4csc5ccc(Cl)cc45)c3c2)c1=O [Example 652]", "HCV NS3 helicase (Hepatitis C virus genotype 1b, UniProt P26663)", "pIC50", "4.30 to 5.00"),
    ("Cc1ccc(N)cc1-c1ccc2c(CC(=O)O)cn(Cc3csc4ccc(Cl)cc34)c2c1 [Example 627]", "HCV NS3 helicase (Hepatitis C virus genotype 1b, UniProt P26663)", "pIC50", "> 5.00"),
    ("Nc1cc(-c2ccc3c(CC(=O)O)cn(Cc4csc5ccc(Cl)cc45)c3c2)nc(N)n1 [Example 629]", "HCV NS3 helicase (Hepatitis C virus genotype 1b, UniProt P26663)", "pIC50", "> 5.00"),
]
